Values from patent US20090280138A1

Would you mind telling me the reported iScore of each entry?
biological target: T1, MHC class I allele A*0201 monomer (human, biotinylated, bound to streptavidin-coated plate); experiment: iTopia, multiparametric iScore
T1 construct: also called A2; HLA-A2
Form rule: numeric answer, no unit written next to it.

Prompt: Field request: iScore | item: LASNHFLYL [5T4 9-mer peptide 109]
Response: 0.337

Prompt: Further, for HMADMVTWL [5T4 9-mer peptide 151] ?
Response: 0.821

Prompt: Further, for LALIGAIFL [5T4 9-mer peptide 182] ?
Response: 0.425

Prompt: Further, for RLDEVRAGA [5T4 9-mer peptide 65] ?
Response: 0.422
